src = the supplement of paper PMC4858399

Attribute: lowest effective concentration
Tested on: Caenorhabditis elegans N2
Experiment: lowest effective concentration for larval growth inhibition (size below effect threshold); higher = less potent
Conditions: exposure time 48 h
Numeric answer only, unit µM assumed.

| molecule | scale-unit | lowest effective concentration |
| --- | --- | --- |
| O=[N+]([O-])/N=C1\NCCN1Cc1ccc(Cl)nc1 | µM | 100 |
| CCCSP(=O)(OCC)Oc1ccc(Br)cc1Cl (stereo not given) | µM | 50 |
| O=C(NC(=O)c1cc(F)c(F)cc1Cl)Nc1cc(F)ccc1N1CCC(C(=O)O)CC1 | µM | 200 |
| NC(=O)N/N=C/c1ccc([N+](=O)[O-])o1 | µM | 50 |
| CO/C=C(/C(=O)OC)c1ccccc1Oc1cc(Oc2ccccc2C#N)ncn1 | µM | 200 |

Request: Identify measured lowest effective concentration obtained with Caenorhabditis elegans N2 for CCC(C)(C)c1ccc(O)cc1 .
Result: 200

Request: Look up and report lowest effective concentration, with Caenorhabditis elegans N2 as system, for COP(=O)(OC)OC=C(Cl)Cl
Result: 50

* * *

Test system: Caenorhabditis elegans N2
Assay: mean nematode size ln(EXT) after 48 h, plate-adjusted (DMSO control set to 6) (ln(EXT), control-adjusted); higher = larger nematodes / less growth inhibition
Settings: 1 µM; exposure time 48 h
quantity-kind: mean nematode size ln(EXT) (ln)
Just the number, please.

Recorded mean nematode size ln(EXT) (ln), per entry:
| compound | quantity-kind | obs-value |
| --- | --- | --- |
| NC(=O)N(O)[C@@H]1C=C[C@H](Oc2cccc(Oc3ccc(F)cc3)c2)C1 | mean nematode size ln(EXT) (ln) | 6.14 |
| CC(=O)OCCOCCOCCOC(C)=O [Triethylene Glycol Diacetate] | mean nematode size ln(EXT) (ln) | 5.87 |

Request: Print Caenorhabditis elegans N2 mean nematode size ln(EXT) (ln) for CC(=O)Nc1ccc(O)cc1 .
Result: 6.05

Request: Find the measured mean nematode size ln(EXT) (ln) of Cc1cn([C@H]2C=C[C@@H](CO)O2)c(=O)[nH]c1=O with Caenorhabditis elegans N2 as test system.
Result: 5.53

Request: Jot down mean nematode size ln(EXT) (ln) (Caenorhabditis elegans N2) of CC[C@H]1CC[C@H](NCc2cc3c(cc2OC)[C@H]2C[C@H]2C(=O)N3C)[C@H](c2ccccc2)N1 .
Result: 5.81

Request: State mean nematode size ln(EXT) (ln) (Caenorhabditis elegans N2) of Cc1ccccc1CO[C@@H]1C[C@@]2(C(C)C)CCC1(C)O2 .
Result: 5.99

Request: Given CCOCCOC(C)=O [2-Ethoxyethyl acetate] , report its mean nematode size ln(EXT) (ln) on Caenorhabditis elegans N2.
Result: 6.11

* * *

Listed next: entries and their corresponding lowest effective concentration.
System: Caenorhabditis elegans N2
Test: lowest effective concentration for larval growth inhibition (size below effect threshold); higher = less potent
Conditions: exposure time 48 h
Structures can show the parent of a compound that is named as a salt.
Number only, in µM; omit the unit.

Here is how some molecules turned out for lowest effective concentration.
| molecule | system-under-test | quantity-kind | obs-value |
| --- | --- | --- | --- |
| ClC1=C(Cl)[C@]2(Cl)[C@@H]3[C@@H]4C[C@@H]([C@H]5O[C@@H]45)[C@@H]3[C@@]1(Cl)C2(Cl)Cl | Caenorhabditis elegans N2 | lowest effective concentration | 5 |
| CC/C(=C(\c1ccccc1)c1ccc(OCCN(C)C)cc1)c1ccccc1 [Tamoxifen citrate salt] | Caenorhabditis elegans N2 | lowest effective concentration | 10 |

Request: Please supply the value of reported lowest effective concentration for the item CN(C)C(=S)SSC(=S)N(C)C
Result: 50

Request: Please indicate lowest effective concentration recorded for CCCCCCCCCCCCCCO
Result: 10

Request: Given Oc1ccc2c(c1)-c1ccccc1C2 [3-Hydroxyfluorene] , respond with its lowest effective concentration.
Result: 50
